Please provide measured inhibition at 0.3 µM for the entries that follow.
Target: Recombinant human JAK1 catalytic domain (Homo sapiens (Human), UniProt P23458)
Sequence (P23458 875-1153): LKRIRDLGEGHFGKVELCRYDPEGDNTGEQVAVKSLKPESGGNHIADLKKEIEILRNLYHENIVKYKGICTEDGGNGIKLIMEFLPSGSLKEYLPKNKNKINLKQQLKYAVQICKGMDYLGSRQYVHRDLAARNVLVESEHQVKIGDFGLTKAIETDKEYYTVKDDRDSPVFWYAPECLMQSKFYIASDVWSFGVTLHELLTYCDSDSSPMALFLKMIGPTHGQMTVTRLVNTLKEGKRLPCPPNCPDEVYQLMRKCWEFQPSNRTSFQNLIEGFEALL
Assay: JAK1 kinase assay (Z'-LYTE Tyr 6 Peptide)
Type: biochemical
Conditions: JAK1 kinase assay, 0.3 uM concentration; read-out: inhibition percentage (IR %)

// sample CN(c1ccc(C(=O)Nc2ccc(Cl)cc2)cn1)[C@@H]1CCN(c2ncnc3[nH]ccc23)C1 , its inhibition at 0.3 µM was 20 to 50%

Entry CN(c1ccc(C(=O)N[C@H](CO)c2ccccc2)cn1)[C@@H]1CCN(c2ncnc3[nH]ccc23)C1 ; inhibition at 0.3 µM = 50 to 100%

Noted for CN(c1ccc(C(=O)NCc2ccccc2)cc1F)[C@@H]1CCN(c2ncnc3[nH]ccc23)C1 : its inhibition at 0.3 µM reads 50 to 100%

Memo: C#CCN(C)[C@@H]1CCN(c2ncnc3[nH]ccc23)C1 , reported inhibition at 0.3 µM: 20 to 50%

Per the record, CN(c1ccc([N+](=O)[O-])c(N)n1)[C@@H]1CCN(c2ncnc3[nH]ccc23)C1 has inhibition at 0.3 µM of 20 to 50%

Entry COc1nccc(N(C)[C@@H]2CCN(c3ncnc4[nH]ccc34)C2)n1 , inhibition at 0.3 µM reported as 20 to 50%

Documented inhibition at 0.3 µM of CN(c1ccc(C#N)c(C#N)c1)[C@@H]1CCN(c2ncnc3[nH]ccc23)C1 : 20 to 50%

Sure, the documented inhibition at 0.3 µM for CN(c1ccc(Cl)cn1)[C@@H]1CCN(c2ncnc3[nH]ccc23)C1 is 50 to 100%

Entry CN(c1ccc(C(=O)N[C@@H](CO)c2ccccc2)cc1Cl)[C@@H]1CCN(c2ncnc3[nH]ccc23)C1 ; inhibition at 0.3 µM = 50 to 100%

The compound listed as CN(c1ccc(-c2ccc(C#N)cc2)cn1)[C@@H]1CCN(c2ncnc3[nH]ccc23)C1 has a reported inhibition at 0.3 µM of 20 to 50%

The compound C=CCN(C1CCCC1)[C@@H]1CCN(c2ncnc3[nH]ccc23)C1 showed inhibition at 0.3 µM equal to 50 to 100%

Entry under test: CN(c1ccc(C(=O)NC[C@H](O)c2ccccc2)cc1F)[C@@H]1CCN(c2ncnc3[nH]ccc23)C1 . Its inhibition at 0.3 µM was 50 to 100%

The compound listed as CN(c1ccc(C#N)cc1C(F)(F)F)[C@@H]1CCN(c2ncnc3[nH]ccc23)C1 has a reported inhibition at 0.3 µM of 20 to 50%

Memo: CN(c1ccc(C(=O)NCc2ccccc2)cn1)[C@@H]1CCN(c2ncnc3[nH]ccc23)C1 , reported inhibition at 0.3 µM: 20 to 50%

Entry CN(C(=O)CO)[C@@H]1CCN(c2ncnc3[nH]ccc23)C1 , inhibition at 0.3 µM reported as 50 to 100%

The compound CN(C(=O)Nc1ccc(C#N)cc1)[C@@H]1CCN(c2ncnc3[nH]ccc23)C1 showed inhibition at 0.3 µM equal to 50 to 100%

Note to self: inhibition at 0.3 µM recorded for C#CCN(c1ccc(C#N)cc1F)[C@@H]1CCN(c2ncnc3[nH]ccc23)C1 was 20 to 50%

====

Molecular target: Recombinant human JAK1 catalytic domain (Homo sapiens (Human), UniProt P23458)
Test: JAK1 kinase assay (Z'-LYTE Tyr 6 Peptide)
Format: biochemical
Conditions: JAK1 kinase assay, 0.3 uM concentration; read-out: inhibition percentage (IR %)
PROPERTY: inhibition at 0.3 µM

For the compound CN(C(=O)N1CCCC1C(F)(F)F)[C@@H]1CCN(c2ncnc3[nH]ccc23)C1 (stereo partly shown) , the measured inhibition at 0.3 µM on Recombinant human JAK1 catalytic domain (Homo sapiens (Human), UniProt P23458) was 50 to 100%

Reported inhibition at 0.3 µM (Recombinant human JAK1 catalytic domain (Homo sapiens (Human), UniProt P23458)) for entry CN(c1ccc(C#N)cn1)[C@H]1CCN(c2ncnc3[nH]ccc23)C1 is 50 to 100%

The compound COc1ccc(S(=O)(=O)N(C)[C@@H]2CCN(c3ncnc4[nH]ccc34)C2)cc1 , when measured on Recombinant human JAK1 catalytic domain (Homo sapiens (Human), UniProt P23458), yielded inhibition at 0.3 µM of 20 to 50%

Fill in: Recombinant human JAK1 catalytic domain (Homo sapiens (Human), UniProt P23458) inhibition at 0.3 µM for Cc1cc(N(C)[C@@H]2CCN(c3ncnc4[nH]ccc34)C2)ncc1[N+](=O)[O-] = 50 to 100%

====

Target: Recombinant human JAK1 catalytic domain (Homo sapiens (Human))
Assay: JAK1 kinase assay (Z'-LYTE Tyr 6 Peptide)
Assay type: biochemical
Conditions: JAK1 kinase assay, 0.3 uM concentration; read-out: inhibition percentage (IR %)
PROPERTY: inhibition at 0.3 µM

Record for CN([C@@H]1CCN(c2ncnc3[nH]ccc23)C1)S(=O)(=O)c1ccc([N+](=O)[O-])cc1 [Compound 11] under target or system Recombinant human JAK1 catalytic domain (Homo sapiens (Human)): inhibition at 0.3 µM reported as 20 to 50%

# value of inhibition at 0.3 µM, Recombinant human JAK1 catalytic domain (Homo sapiens (Human)), item CN(c1ccc(C(=O)Nc2cccc(Cl)c2)cc1F)[C@@H]1CCN(c2ncnc3[nH]ccc23)C1 [Compound 185] = 50 to 100%

So the reported inhibition at 0.3 µM for CN(c1ccc(S(=O)(=O)NCC2CC2)cn1)[C@@H]1CCN(c2ncnc3[nH]ccc23)C1 [Compound 235] , on Recombinant human JAK1 catalytic domain (Homo sapiens (Human)), turned out to be 50 to 100%

Considering COc1nc(N(C)[C@@H]2CCN(c3ncnc4[nH]ccc34)C2)ccc1C#N [Compound 42] , its inhibition at 0.3 µM with Recombinant human JAK1 catalytic domain (Homo sapiens (Human)) was recorded as 50 to 100%

Form: item CN(C(=O)Nc1ccc(C(F)(F)F)cc1)[C@@H]1CCN(c2ncnc3[nH]ccc23)C1 [Compound 30] ; test system Recombinant human JAK1 catalytic domain (Homo sapiens (Human)); inhibition at 0.3 µM: 50 to 100%

# value of inhibition at 0.3 µM, Recombinant human JAK1 catalytic domain (Homo sapiens (Human)), item C[C@H](NS(=O)(=O)c1ccc(N(C)[C@@H]2CCN(c3ncnc4[nH]ccc34)C2)nc1)c1ccc(F)cc1 [Compound 256] = 50 to 100%

Entry CN(c1ccc(S(=O)(=O)NCc2ccc(F)cc2)cn1)[C@@H]1CCN(c2ncnc3[nH]ccc23)C1 [Compound 254] : inhibition at 0.3 µM on Recombinant human JAK1 catalytic domain (Homo sapiens (Human)) = 50 to 100%

The observed inhibition at 0.3 µM for CN(c1ccc(C#N)cc1Br)[C@@H]1CCN(c2ncnc3[nH]ccc23)C1 [Compound 115] when tested with Recombinant human JAK1 catalytic domain (Homo sapiens (Human)) stands at 50 to 100%

Fill in: Recombinant human JAK1 catalytic domain (Homo sapiens (Human)) inhibition at 0.3 µM for CCS(=O)(=O)N(C)[C@@H]1CCN(c2ncnc3[nH]ccc23)C1 [Compound 48] = 50 to 100%

The recorded inhibition at 0.3 µM with Recombinant human JAK1 catalytic domain (Homo sapiens (Human)) for CN(c1ccc(F)cn1)[C@@H]1CCN(c2ncnc3[nH]ccc23)C1 [Compound 66] was 20 to 50%

Note to self: inhibition at 0.3 µM of CN(c1ccc(C(=O)N[C@@H]2c3ccccc3C[C@@H]2O)cc1F)[C@@H]1CCN(c2ncnc3[nH]ccc23)C1 [Compound 203] with Recombinant human JAK1 catalytic domain (Homo sapiens (Human)) was 20 to 50%

Note to self: inhibition at 0.3 µM of CN(C)C(=O)c1ccc(N(C)[C@@H]2CCN(c3ncnc4[nH]ccc34)C2)nc1 [Compound 173] with Recombinant human JAK1 catalytic domain (Homo sapiens (Human)) was 20 to 50%

Field inhibition at 0.3 µM (system: Recombinant human JAK1 catalytic domain (Homo sapiens (Human))) for entry CCN(c1ccc(C#N)cn1)[C@@H]1CCN(c2ncnc3[nH]ccc23)C1 [Compound 126] = 50 to 100%

Summary line: CN(c1ccc(S(=O)(=O)NC2COC2)cn1)[C@@H]1CCN(c2ncnc3[nH]ccc23)C1 [Compound 242] , Recombinant human JAK1 catalytic domain (Homo sapiens (Human)), reported inhibition at 0.3 µM = 50 to 100%

Short answer on Recombinant human JAK1 catalytic domain (Homo sapiens (Human)) for N#CCN(C1CCC1)[C@@H]1CCN(c2ncnc3[nH]ccc23)C1 [Compound 52] , inhibition at 0.3 µM: 50 to 100%

The compound CN(c1ccc(C#N)cc1Cl)[C@@H]1CCN(c2ncnc3[nH]ccc23)C1 [Compound 112] on Recombinant human JAK1 catalytic domain (Homo sapiens (Human)): inhibition at 0.3 µM was 50 to 100%

Form: item CN(c1ccc(S(=O)(=O)N2CCNCC2)cn1)[C@@H]1CCN(c2ncnc3[nH]ccc23)C1 [Compound 251] ; test system Recombinant human JAK1 catalytic domain (Homo sapiens (Human)); inhibition at 0.3 µM: 50 to 100%

Record for CN(c1cnc(NCC2CC2)cn1)[C@@H]1CCN(c2ncnc3[nH]ccc23)C1 [Compound 138] under target or system Recombinant human JAK1 catalytic domain (Homo sapiens (Human)): inhibition at 0.3 µM reported as 50 to 100%

The measured inhibition at 0.3 µM that CN(c1c(F)cc(C#N)cc1F)[C@@H]1CCN(c2ncnc3[nH]ccc23)C1 [Compound 108] showed for Recombinant human JAK1 catalytic domain (Homo sapiens (Human)) is 50 to 100%

Result for C#CCN(c1ccc(C#N)cc1)[C@@H]1CCN(c2ncnc3[nH]ccc23)C1 [Compound 131] , tested on Recombinant human JAK1 catalytic domain (Homo sapiens (Human)), inhibition at 0.3 µM: 50 to 100%

Tested on Recombinant human JAK1 catalytic domain (Homo sapiens (Human)), the item CN(c1cccc(C#N)c1)[C@@H]1CCN(c2ncnc3[nH]ccc23)C1 [Compound 119] showed inhibition at 0.3 µM equal to 50 to 100%

Query CN(c1ccc(NS(=O)(=O)c2cc(F)ccc2F)cn1)[C@@H]1CCN(c2ncnc3[nH]ccc23)C1 [Compound 213] on Recombinant human JAK1 catalytic domain (Homo sapiens (Human)); inhibition at 0.3 µM returned: 20 to 50%

Entry CN(c1ccc(C(=O)NCCO)cn1)[C@@H]1CCN(c2ncnc3[nH]ccc23)C1 [Compound 190] ; assay system Recombinant human JAK1 catalytic domain (Homo sapiens (Human)); inhibition at 0.3 µM recorded at 50 to 100%

Entry CN(C(=O)CCc1c(Cl)cccc1Cl)[C@@H]1CCN(c2ncnc3[nH]ccc23)C1 [Compound 21] , Recombinant human JAK1 catalytic domain (Homo sapiens (Human)) data, inhibition at 0.3 µM value: 50 to 100%

Assay Recombinant human JAK1 catalytic domain (Homo sapiens (Human)), sample Cc1cc(C#N)cnc1N(C)[C@@H]1CCN(c2ncnc3[nH]ccc23)C1 [Compound 100] , inhibition at 0.3 µM read: 20 to 50%

Tested on Recombinant human JAK1 catalytic domain (Homo sapiens (Human)), the item C#CCN(C1CCCCC1)[C@@H]1CCN(c2ncnc3[nH]ccc23)C1 [Compound 54] showed inhibition at 0.3 µM equal to 20 to 50%

The recorded inhibition at 0.3 µM with Recombinant human JAK1 catalytic domain (Homo sapiens (Human)) for CN(C(=O)CS(C)(=O)=O)[C@@H]1CCN(c2ncnc3[nH]ccc23)C1 [Compound 27] was 50 to 100%

inhibition at 0.3 µM on Recombinant human JAK1 catalytic domain (Homo sapiens (Human)) for CN(c1ccc(C(=O)N[C@@H](CO)c2ccccc2)cc1F)[C@@H]1CCN(c2ncnc3[nH]ccc23)C1 [Compound 179] is 50 to 100%

inhibition at 0.3 µM of CN(C(=O)Cc1ccc(C#N)cc1)[C@@H]1CCN(c2ncnc3[nH]ccc23)C1 [Compound 20] , assay on Recombinant human JAK1 catalytic domain (Homo sapiens (Human)), is 50 to 100%

Lab entry: Recombinant human JAK1 catalytic domain (Homo sapiens (Human)) assay, compound CN(c1ccc(C#N)cc1N)[C@@H]1CCN(c2ncnc3[nH]ccc23)C1 [Compound 166] , inhibition at 0.3 µM = 20 to 50%

Bench note, Recombinant human JAK1 catalytic domain (Homo sapiens (Human)): CCCN(c1ccc(C#N)cn1)[C@@H]1CCN(c2ncnc3[nH]ccc23)C1 [Compound 98] , inhibition at 0.3 µM reads 50 to 100%

Record CN(c1cnc(NCCO)cn1)[C@@H]1CCN(c2ncnc3[nH]ccc23)C1 [Compound 135] has Recombinant human JAK1 catalytic domain (Homo sapiens (Human)) inhibition at 0.3 µM equal to 20 to 50%
